- Target Under Test: T1, 017-mut5 peptide (…)/HLA-A*02:01 complex on T2 cells (human)
- T1 construct: Alanine mutant at position 5
- Protocol: flow cytometry, phage on peptide-loaded T2 cells
Exercise: for every item that follows, state its recorded MFI.

Give MFI for the following binder: EXT017-27 scFv phage clone (scFv, full-length scFv with His+HA tags; also called EXT017-27 phage; phage clone #27) scFv: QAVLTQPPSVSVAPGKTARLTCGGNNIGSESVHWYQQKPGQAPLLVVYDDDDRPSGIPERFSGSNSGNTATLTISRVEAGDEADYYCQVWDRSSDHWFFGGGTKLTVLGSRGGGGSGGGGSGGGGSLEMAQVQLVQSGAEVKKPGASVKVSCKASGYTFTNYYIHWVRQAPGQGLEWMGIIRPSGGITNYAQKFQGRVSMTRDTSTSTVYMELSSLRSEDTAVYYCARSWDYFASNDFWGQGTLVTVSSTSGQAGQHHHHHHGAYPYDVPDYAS
95.4

Return value of MFI for input EXT017-54 scFv phage clone (scFv, full-length scFv with His+HA tags; also called EXT017-54 phage) scFv: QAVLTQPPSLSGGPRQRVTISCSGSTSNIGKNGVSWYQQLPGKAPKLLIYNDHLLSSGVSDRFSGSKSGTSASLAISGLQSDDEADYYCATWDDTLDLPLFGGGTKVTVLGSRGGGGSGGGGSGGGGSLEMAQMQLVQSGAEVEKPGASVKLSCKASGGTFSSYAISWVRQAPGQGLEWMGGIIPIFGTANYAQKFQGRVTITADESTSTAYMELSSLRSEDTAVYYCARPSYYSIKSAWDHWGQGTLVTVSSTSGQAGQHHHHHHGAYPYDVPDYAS , no commentary.
91.2

State its MFI for this binder: EXT017-17 scFv phage clone (scFv, fusion to the phage coat protein not described; also called EXT017-17 phage; phage clone #17) scFv: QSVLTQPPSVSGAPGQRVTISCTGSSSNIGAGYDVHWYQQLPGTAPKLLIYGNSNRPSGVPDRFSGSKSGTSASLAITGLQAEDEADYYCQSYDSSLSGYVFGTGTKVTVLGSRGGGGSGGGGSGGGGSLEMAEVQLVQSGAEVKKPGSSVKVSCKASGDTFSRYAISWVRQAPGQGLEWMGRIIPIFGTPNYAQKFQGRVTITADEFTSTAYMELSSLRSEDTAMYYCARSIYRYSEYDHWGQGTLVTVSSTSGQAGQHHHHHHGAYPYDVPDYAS
98.1

Give reported MFI value for EXT017-53 scFv phage clone (scFv, full-length scFv with His+HA tags; also called EXT017-53 phage) scFv: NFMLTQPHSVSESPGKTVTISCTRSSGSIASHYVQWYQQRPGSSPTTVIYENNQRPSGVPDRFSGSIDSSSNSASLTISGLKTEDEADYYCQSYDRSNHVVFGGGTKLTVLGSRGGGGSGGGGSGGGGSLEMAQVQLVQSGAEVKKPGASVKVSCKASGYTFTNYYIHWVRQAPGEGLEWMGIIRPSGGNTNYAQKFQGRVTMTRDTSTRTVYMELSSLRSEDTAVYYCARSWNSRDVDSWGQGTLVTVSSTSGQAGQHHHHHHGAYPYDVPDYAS
98.5

The reported numbers originate from patent US20190284262A1.
